# study-system: Human CD33 ECD-HSA (human)
# Sequence (chain, as listed by the source): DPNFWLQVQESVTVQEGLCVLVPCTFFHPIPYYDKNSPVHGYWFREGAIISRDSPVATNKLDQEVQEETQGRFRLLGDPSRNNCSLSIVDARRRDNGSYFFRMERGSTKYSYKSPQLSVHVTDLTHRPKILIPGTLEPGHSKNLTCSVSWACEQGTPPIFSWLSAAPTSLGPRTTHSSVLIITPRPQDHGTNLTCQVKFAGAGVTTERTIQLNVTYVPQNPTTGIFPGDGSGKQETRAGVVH
# test-protocol: ProteOn SPR, mAb captured by anti-human Fc, 1:1 Langmuir fit
Exercise: state measured koff for each of the binders provided.
Report the figure in s⁻¹ without appending any unit label.

Query: Given the binder C33B125 (antibody, IgG1, V domains shown, huIgG1 F405L; also called C33F130; C33H84/C33L66) VH: QVQLVESGGGVVQPGRSLRLSCAASGFTFSSYGMHWVRQAPGKGLEWVAVISYDGSNKYYADSVKGRFTISRDNSKNTLYLQMNSLRAEDTAVYYCAKDFRSFDWLPPDSTSYYGMDVWGQGTTVTVSS VL: SYELTQPPSVSVSPGQTASITCSGDKLGDKYVCWYQQKPGQSPVVVIHQDRKRPSGIPERFSGSNFGNTATLTISGTQAMDEADYYCQAWDSSTVVFGGGTKLTVL , write its reported koff.
Result: 0.000134

Query: Supply measured koff of C33B72 (antibody, IgG1, V domains shown, huIgG1 F405L; also called C33F77; C33H65/C33L47) VH: QVQLVESGGGVVQPGRSLRLSCAASGFTFSSYGMHWVRQAPGKGLEWVVVISYDGSNKYYADSVKGRFTISRDNSKNTLYLQMNSLRAEDTAVYYCAKDFRDFDWLPPDSTSYHGMDVWGQGTTVTVSS VL: SYELTQPPSVSVSPGQTASITCSGDKLGDKYACWYQQKPGQSPVVVIYQDRKRPSGIPERFSGSNFGNTATLTISGTQAMDEADYYCQAWDSSTVVFGGGTKLTVL in your reply.
Result: 0.0002

Query: Identify koff associated with the binder C33B82 (antibody, IgG1, V domains shown, huIgG1 F405L; also called C33F87; C33H78/C33L57) VH: QVQLVESGGGVVQPGRSLRLSCAASGFTFSSYGMHWVRQAPGKGLEWVAVISYDGSNKYYADSVKGRFTISRDNSKNTLFLQMNSLRAEDTAVYYCAKDFRYFDWLPPDSSSYYGMDVWGQGTTVTVSS VL: SYELTQPPSVSVSPGQTASITCSGDELGNKYACWYQQKPGQSPVVVVYQDRKRPSGIPERFSGSNFGNTATLTISGTQAMDEADYYCQAWDSSTVVFGGGTKLTVL
Result: 0.00027

Data origin: patent US20230322924A1
